# assay_method_text: activity coefficient (dimensionless); of the first substance listed, at infinite dilution; xn = mol fraction of the nth substance listed
# stated_conditions: 333.15 K; Liquid; Chromatography; x1 = 0
Recorded activity coefficient, one value per entry.

# compound, activity coefficient
records = [
    ("CCCCCCCCCCCC [dodecane] + Cn1cc[n+](COCCCOC[n+]2ccn(C)c2)c1.N#C[N-]C#N.N#C[N-]C#N", 962),
    ("CC(C)OC(C)C [diisopropyl ether] + CCCOC[n+]1ccn(Cc2ccccc2)c1.O=S(=O)([N-]S(=O)(=O)C(F)(F)F)C(F)(F)F", 2.87),
    ("Cc1cccc(C)c1 [1,3-dimethylbenzene] + CCCOC[n+]1ccn(Cc2ccccc2)c1.N#C[N-]C#N", 3.52),
]

====

# assay_method_text: activity coefficient (dimensionless); of the first substance listed, at infinite dilution; xn = mol fraction of the nth substance listed
# stated_conditions: 333.15 K; Liquid; Chromatography; x1 = 0
Decide by activity coefficient: equal to or exceeding 1 means True, less means False.

# compound, assigned_category
measured = [
    ("CC(C)CO [2-methyl-1-propanol] + CN(C)c1cc[n+](COCCCOC[n+]2ccc(N(C)C)cc2)cc1.O=S(=O)([N-]S(=O)(=O)C(F)(F)F)C(F)(F)F.O=S(=O)([N-]S(=O)(=O)C(F)(F)F)C(F)(F)F", "True"),
    ("CC1CCCCC1 [methylcyclohexane] + CCCOC[n+]1ccc(N(C)C)cc1.O=S(=O)([N-]S(=O)(=O)C(F)(F)F)C(F)(F)F", "True"),
    ("ClC(Cl)Cl [trichloromethane] + CCCOC[n+]1ccn(Cc2ccccc2)c1.N#C[N-]C#N", "False"),
    ("ClC(Cl)Cl [trichloromethane] + N#C[N-]C#N.N#C[N-]C#N.c1ccc(Cn2cc[n+](COCCCOC[n+]3ccn(Cc4ccccc4)c3)c2)cc1", "True"),
    ("CC#N [acetonitrile] + CCCOC[n+]1ccn(C)c1.O=S(=O)([N-]S(=O)(=O)C(F)(F)F)C(F)(F)F", "False"),
    ("ClC(Cl)(Cl)Cl [tetrachloromethane] + CCCCCCCCn1cc[n+](COCCCOC[n+]2ccn(CCCCCCCC)c2C)c1C.O=S(=O)([N-]S(=O)(=O)C(F)(F)F)C(F)(F)F.O=S(=O)([N-]S(=O)(=O)C(F)(F)F)C(F)(F)F", "False"),
    ("CCCCCCCCCCCCCC [tetradecane] + CCCOC[n+]1ccn(C)c1.N#C[N-]C#N", "True"),
    ("C1COCCO1 [1,4-dioxane] + CCCOC[n+]1ccn(Cc2ccccc2)c1.O=S(=O)([N-]S(=O)(=O)C(F)(F)F)C(F)(F)F", "False"),
    ("C#CCCCCC [1-heptyne] + CCCCCCCCn1cc[n+](COCCCOC[n+]2ccn(CCCCCCCC)c2C)c1C.O=S(=O)([N-]S(=O)(=O)C(F)(F)F)C(F)(F)F.O=S(=O)([N-]S(=O)(=O)C(F)(F)F)C(F)(F)F", "True"),
    ("C1CCCCC1 [cyclohexane] + CCCOC[n+]1ccn(C)c1.F[B-](F)(F)F", "True"),
    ("Cc1cccc(C)c1 [1,3-dimethylbenzene] + CCCCCCCCn1cc[n+](COCCC)c1C.N#C[N-]C#N", "True"),
    ("CCOCC [diethyl ether] + CCCOC[n+]1ccn(C)c1.O=S(=O)([N-]S(=O)(=O)C(F)(F)F)C(F)(F)F", "True"),
    ("C1CCCCC1 [cyclohexane] + Cn1cc[n+](COCCCOC[n+]2ccn(C)c2)c1.O=S(=O)([N-]S(=O)(=O)C(F)(F)F)C(F)(F)F.O=S(=O)([N-]S(=O)(=O)C(F)(F)F)C(F)(F)F", "True"),
    ("CCCCCCCCCCC [undecane] + CCCOC[n+]1ccn(Cc2ccccc2)c1.F[B-](F)(F)F", "True"),
]

====

# assay_method_text: activity coefficient (dimensionless); of the first substance listed, at infinite dilution; xn = mol fraction of the nth substance listed
# stated_conditions: 333.15 K; Liquid; Chromatography; x1 = 0
measured_property: activity coefficient

# compound, val
records = [
    ("Cc1ccccc1 [toluene] + N#C[N-]C#N.N#C[N-]C#N.c1ccc(Cn2cc[n+](COCCCOC[n+]3ccn(Cc4ccccc4)c3)c2)cc1", 4.97),
    ("ClCCl [dichloromethane] + CCCCCCCCn1cc[n+](COCCC)c1C.O=S(=O)([N-]S(=O)(=O)C(F)(F)F)C(F)(F)F", 0.43),
    ("ClCCl [dichloromethane] + CN(C)c1cc[n+](COCCCOC[n+]2ccc(N(C)C)cc2)cc1.O=S(=O)([N-]S(=O)(=O)C(F)(F)F)C(F)(F)F.O=S(=O)([N-]S(=O)(=O)C(F)(F)F)C(F)(F)F", 0.54),
    ("CCO [ethanol] + N#C[N-]C#N.N#C[N-]C#N.c1ccc(Cn2cc[n+](COCCCOC[n+]3ccn(Cc4ccccc4)c3)c2)cc1", 0.89),
    ("CC1CCCCC1 [methylcyclohexane] + CCCOC[n+]1ccn(C)c1.O=S(=O)([N-]S(=O)(=O)C(F)(F)F)C(F)(F)F", 12.9),
    ("Cc1ccccc1C [1,2-dimethylbenzene] + Cn1cc[n+](COCCCOC[n+]2ccn(C)c2)c1.O=S(=O)([N-]S(=O)(=O)C(F)(F)F)C(F)(F)F.O=S(=O)([N-]S(=O)(=O)C(F)(F)F)C(F)(F)F", 2.1),
    ("CCCO [propan-1-ol] + CCCOC[n+]1ccn(Cc2ccccc2)c1.F[B-](F)(F)F", 1.92),
    ("CCCCCCCC [octane] + Cn1cc[n+](COCCCOC[n+]2ccn(C)c2)c1.O=S(=O)([N-]S(=O)(=O)C(F)(F)F)C(F)(F)F.O=S(=O)([N-]S(=O)(=O)C(F)(F)F)C(F)(F)F", 60.6),
    ("CCCCCCCCC [nonane] + CCCOC[n+]1ccn(Cc2ccccc2)c1.O=S(=O)([N-]S(=O)(=O)C(F)(F)F)C(F)(F)F", 19.1),
    ("CCCC(C)=O [pentan-2-one] + CN(C)c1cc[n+](COCCCOC[n+]2ccc(N(C)C)cc2)cc1.O=S(=O)([N-]S(=O)(=O)C(F)(F)F)C(F)(F)F.O=S(=O)([N-]S(=O)(=O)C(F)(F)F)C(F)(F)F", 0.7),
    ("c1ccccc1 [benzene] + CCCOC[n+]1ccn(Cc2ccccc2)c1.O=S(=O)([N-]S(=O)(=O)C(F)(F)F)C(F)(F)F", 0.71),
    ("CC#N [acetonitrile] + CCCOC[n+]1ccc(N(C)C)cc1.O=S(=O)([N-]S(=O)(=O)C(F)(F)F)C(F)(F)F", 0.52),
    ("C=CCCCC [hex-1-ene] + Cn1cc[n+](COCCCOC[n+]2ccn(C)c2)c1.O=S(=O)([N-]S(=O)(=O)C(F)(F)F)C(F)(F)F.O=S(=O)([N-]S(=O)(=O)C(F)(F)F)C(F)(F)F", 10.1),
    ("CCCCCCCCCCCC [dodecane] + CN(C)c1cc[n+](COCCCOC[n+]2ccc(N(C)C)cc2)cc1.O=S(=O)([N-]S(=O)(=O)C(F)(F)F)C(F)(F)F.O=S(=O)([N-]S(=O)(=O)C(F)(F)F)C(F)(F)F", 137),
    ("CCO [ethanol] + CCCOC[n+]1ccn(C)c1.N#C[N-]C#N", 0.73),
    ("C#CCCCC [1-hexyne] + CCCOC[n+]1ccn(Cc2ccccc2)c1.F[B-](F)(F)F", 5.52),
    ("C[N+](=O)[O-] [nitromethane] + Cn1cc[n+](COCCCOC[n+]2ccn(C)c2)c1.N#C[N-]C#N.N#C[N-]C#N", 0.56),
    ("Cc1ccccc1 [toluene] + CCCCCCCCn1cc[n+](COCCCOC[n+]2ccn(CCCCCCCC)c2C)c1C.O=S(=O)([N-]S(=O)(=O)C(F)(F)F)C(F)(F)F.O=S(=O)([N-]S(=O)(=O)C(F)(F)F)C(F)(F)F", 0.53),
    ("c1ccccc1 [benzene] + Cn1cc[n+](COCCCOC[n+]2ccn(C)c2)c1.O=S(=O)([N-]S(=O)(=O)C(F)(F)F)C(F)(F)F.O=S(=O)([N-]S(=O)(=O)C(F)(F)F)C(F)(F)F", 0.94),
    ("CCc1ccccc1 [ethylbenzene] + CCCCCCCCn1cc[n+](COCCC)c1C.N#C[N-]C#N", 1.5),
    ("CCCCCCCCC [nonane] + CCCCCCCCn1cc[n+](COCCC)c1C.O=S(=O)([N-]S(=O)(=O)C(F)(F)F)C(F)(F)F", 7.42),
]

====

# assay_method_text: activity coefficient (dimensionless); of the first substance listed, at infinite dilution; xn = mol fraction of the nth substance listed
# stated_conditions: 333.15 K; Liquid; Chromatography; x1 = 0
Each entry falls into one class according to its activity coefficient; the ranges are interval 1 = under 0.8, interval 2 = from 0.8 up to 4, interval 3 = 4 and over

# compound, assigned_category
measured = [
    ("CCO [ethanol] + CCCCCCCCn1cc[n+](COCCC)c1C.O=S(=O)([N-]S(=O)(=O)C(F)(F)F)C(F)(F)F", "interval 2"),
    ("ClC(Cl)Cl [trichloromethane] + CCCOC[n+]1ccn(Cc2ccccc2)c1.F[B-](F)(F)F", "interval 2"),
    ("CCCC(C)=O [pentan-2-one] + CCCCCCCCn1cc[n+](COCCC)c1C.O=S(=O)([N-]S(=O)(=O)C(F)(F)F)C(F)(F)F", "interval 1"),
    ("CC(C)OC(C)C [diisopropyl ether] + Cn1cc[n+](COCCCOC[n+]2ccn(C)c2)c1.O=S(=O)([N-]S(=O)(=O)C(F)(F)F)C(F)(F)F.O=S(=O)([N-]S(=O)(=O)C(F)(F)F)C(F)(F)F", "interval 3"),
    ("CO [methanol] + N#C[N-]C#N.N#C[N-]C#N.c1ccc(Cn2cc[n+](COCCCOC[n+]3ccn(Cc4ccccc4)c3)c2)cc1", "interval 1"),
    ("CO [methanol] + CCCOC[n+]1ccn(Cc2ccccc2)c1.F[B-](F)(F)F", "interval 2"),
    ("CCC(=O)CC [pentan-3-one] + CN(C)c1cc[n+](COCCCOC[n+]2ccc(N(C)C)cc2)cc1.O=S(=O)([N-]S(=O)(=O)C(F)(F)F)C(F)(F)F.O=S(=O)([N-]S(=O)(=O)C(F)(F)F)C(F)(F)F", "interval 1"),
    ("C1CCCCC1 [cyclohexane] + CCCOC[n+]1ccn(Cc2ccccc2)c1.N#C[N-]C#N", "interval 3"),
    ("CCc1ccccc1 [ethylbenzene] + CCCOC[n+]1ccn(C)c1.O=S(=O)([N-]S(=O)(=O)C(F)(F)F)C(F)(F)F", "interval 2"),
    ("CCOCC [diethyl ether] + CCCCCCCCn1cc[n+](COCCCOC[n+]2ccn(CCCCCCCC)c2C)c1C.O=S(=O)([N-]S(=O)(=O)C(F)(F)F)C(F)(F)F.O=S(=O)([N-]S(=O)(=O)C(F)(F)F)C(F)(F)F", "interval 2"),
    ("CCCCCC [hexane] + CCCCCCCCn1cc[n+](COCCCOC[n+]2ccn(CCCCCCCC)c2C)c1C.O=S(=O)([N-]S(=O)(=O)C(F)(F)F)C(F)(F)F.O=S(=O)([N-]S(=O)(=O)C(F)(F)F)C(F)(F)F", "interval 2"),
    ("Cc1ccccc1 [toluene] + CCCOC[n+]1ccn(C)c1.F[B-](F)(F)F", "interval 3"),
    ("C1CCCCCC1 [cycloheptane] + N#C[N-]C#N.N#C[N-]C#N.c1ccc(Cn2cc[n+](COCCCOC[n+]3ccn(Cc4ccccc4)c3)c2)cc1", "interval 3"),
    ("c1ccncc1 [pyridine] + CCCCCCCCn1cc[n+](COCCCOC[n+]2ccn(CCCCCCCC)c2C)c1C.O=S(=O)([N-]S(=O)(=O)C(F)(F)F)C(F)(F)F.O=S(=O)([N-]S(=O)(=O)C(F)(F)F)C(F)(F)F", "interval 1"),
]
